# Tested on: SUDV (strain Gulu)
# PROTOCOL_SUMMARY: microbe, parasite or virus in culture
# Assay type: cell-based, Sudan virus (SUDV)
# ASSAY_CONDITIONS: Sudan ebolavirus, HeLa, read-out: SUDV-Gulu EC50 (uM)
METRIC_NAME: EC50 (µM)

| COMPOUND | TARGET_ENTITY | METRIC_NAME | READING |
| --- | --- | --- | --- |
| CCC1C2CC3(C(=O)N[C@H]4CC[C@H](N)CC4)CC1CC(c1ccccc1)(C2)C3 (stereo partly shown) | SUDV (strain Gulu) | EC50 | 0.039 |

// data source = patent US20240238265A1
